B1: Twister Ribozyme (parent)
chain: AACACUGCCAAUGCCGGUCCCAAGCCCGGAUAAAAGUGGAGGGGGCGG

Variants of: B1
Assay: self-cleavage, relative activity (ratio to wild type); higher = more cleavage; co-transcriptional
readout type: self-cleavage
# answer = number (no unit)

Some solved entries appear below for comparison.
>>> measured_result("G13U C15A")
0.11
>>> measured_result("C14A A30U")
0.968
>>> measured_result("G17C C20G")
0.0846
>>> measured_result("G7C A10G")
0.0662
>>> measured_result("G16A G28A")
0.48
>>> measured_result("A11U G43U")
0.606

Prompt line: GET /values?readout=self-cleavage&item= C3A C27G
Response line: 0.0917
